target: Human immunodeficiency virus type 1 reverse transcriptase (Human immunodeficiency virus 1); assay: Inhibition of HIV1 recombinant reverse transcriptase by NCI assay
pIC50: −log10 of the molar value.
Parameter pIC50: see the listing below.

Here is how some compounds turned out for pIC50.
- CC1(C)CC[C@]2(C(=O)O)CC=C3[C@]4(C)CC[C@H]5C(C)(C)[C@@H](O)[C@H](OC(=O)c6ccc(O)cc6)C[C@]5(C)[C@H]4CC[C@@]3(C)[C@H]2C1: < 3.70
- CC1(C)CC[C@]2(C(=O)O)CC=C3[C@]4(C)CC[C@H]5C(C)(C)C[C@H](O)[C@@H](O)[C@]5(C)[C@H]4CC[C@@]3(C)[C@H]2C1: < 4.00

As a next step, examine the compound that follows.
Item: `CC1(C)CC[C@]2(C(=O)O)CC=C3[C@]4(C)CC[C@H]5C(C)(C)[C@@H](OC(=O)/C=C/c6ccc(O)cc6)CC[C@]5(C)[C@H]4CC[C@@]3(C)[C@H]2C1` | pIC50: 4.22

* * *

biological target: Human immunodeficiency virus type 1 reverse transcriptase (Human immunodeficiency virus 1, UniProt Q72547); assay: Inhibition of HIV1 recombinant reverse transcriptase by UIC assay
property_name: IC50 (µM)

Reference set, count: 6
- CC1(C)CC[C@]2(C(=O)O)CC=C3[C@]4(C)CC[C@H]5C(C)(C)C[C@H](O)[C@@H](O)[C@]5(C)[C@H]4CC[C@@]3(C)[C@H]2C1: 3.4
- CC1(C)CC[C@]2(C(=O)O)CC=C3[C@]4(C)CC[C@H]5C(C)(C)[C@@H](O)[C@H](OC(=O)c6ccc(O)cc6)C[C@]5(C)[C@H]4CC[C@@]3(C)[C@H]2C1: 52
- CC1(C)CC[C@]2(C(=O)O)CC=C3[C@]4(C)CC[C@H]5C(C)(C)[C@@H](OC(=O)c6ccc(O)cc6)CC[C@]5(C)[C@H]4CC[C@@]3(C)[C@H]2C1: 10.6
- CC1(C)CC[C@]2(C(=O)O)CC=C3[C@]4(C)CC[C@H]5C(C)(C)[C@@H](OC(=O)c6ccc(O)cc6)C[C@@H](O)[C@]5(C)[C@H]4CC[C@@]3(C)[C@H]2C1: 3.7
- CC1(C)CC[C@]2(C(=O)O)CC=C3[C@]4(C)CC[C@H]5C(C)(C)[C@@H](OC(=O)/C=C/c6ccc(O)cc6)CC[C@]5(C)[C@H]4CC[C@@]3(C)[C@H]2C1: 11.5
- CC1(C)CC[C@]2(C(=O)O)CC=C3[C@]4(C)CC[C@H]5C(C)(C)[C@@H](OC(=O)c6ccc(O)cc6)[C@H](OC(=O)c6ccc(O)cc6)C[C@]5(C)[C@H]4CC[C@@]3(C)[C@H]2C1: 7.9

1. CC1(C)CC[C@]2(C(=O)O)CC=C3[C@]4(C)CC[C@H]5C(C)(C)[C@@H](OC(=O)c6ccc(O)cc6)[C@H](O)C[C@]5(C)[C@H]4CC[C@@]3(C)[C@H]2C1
2. CC1(C)CC[C@]2(C(=O)O)CC=C3[C@]4(C)CC[C@H]5C(C)(C)[C@@H](O)C[C@@H](O)[C@]5(C)[C@H]4CC[C@@]3(C)[C@H]2C1
Asked: For the pair 1 and 2 , which entry has the numerically smaller recorded IC50? Please identify the chosen entry by its label.
Given back: 2
(2: 4.9 µM, 1: 14.4 µM)
